The reported numbers originate from patent US10323026B2.

Biological target: His-hMAGL (recombinant polyhistidine tagged human MAGL protein) (Homo sapiens)
Construct: polyhistidine (His) (N); made in house; host or cells: E. coli BL21(DE3)
Sequence (Q99685 1-303): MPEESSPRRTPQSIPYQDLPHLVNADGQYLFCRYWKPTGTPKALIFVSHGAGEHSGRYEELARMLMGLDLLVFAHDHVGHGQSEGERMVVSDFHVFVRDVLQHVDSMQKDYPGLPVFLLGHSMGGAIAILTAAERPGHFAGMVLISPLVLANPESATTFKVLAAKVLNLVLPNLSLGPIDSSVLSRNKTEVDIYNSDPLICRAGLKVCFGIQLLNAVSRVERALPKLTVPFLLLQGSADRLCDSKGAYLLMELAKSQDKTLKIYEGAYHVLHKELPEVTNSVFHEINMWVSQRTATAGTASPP
Assay: Measurement of MAGL inhibitory activity (RapidFire-mass spectrometry of arachidonic acid produced from 2-arachidonylglycerol)
Format: biochemical
Details: test compound 10 μM; His-hMAGL; substrate 2-arachidonylglycerol; 60 min preincubation; read-out: % inhibition (10 μM)
value type: inhibition at 10 µM (%)

compound=O=C1N[C@]2(CO1)C[C@H](C(=O)N1CCC(COc3ccc(N4CC(F)C4)cc3Cl)CC1)C2 unit_of_measurement=% quantitative_result=101
compound=O=C1N[C@]2(CO1)C[C@H](C(=O)N1CC(CC(F)(F)c3ccc(C(F)(F)F)c(F)c3F)C1)C2 unit_of_measurement=% quantitative_result=100
compound=N#Cc1cc(Cl)ccc1OCC1CCN(C(=O)[C@H]2C[C@]3(COC(=O)N3)C2)CC1 unit_of_measurement=% quantitative_result=100
compound=O=C1N[C@]2(CO1)C[C@H](C(=O)N1CC(CC(F)(F)c3ccc(F)c(C(F)(F)F)c3)C1)C2 unit_of_measurement=% quantitative_result=100
compound=Cc1ccc(C(F)(F)CC2CN(C(=O)[C@H]3C[C@]4(COC(=O)N4)C3)C2)cc1Cl unit_of_measurement=% quantitative_result=99
compound=O=C1N[C@]2(CO1)C[C@H](C(=O)N1CCC3(CC1)CC(Oc1ccc(F)cc1Cl)C3)C2 unit_of_measurement=% quantitative_result=100
compound="CC1(C2CCN(C(=O)[C@H]3C[C@]4(CCC(=O)N4)C3)CC2)Cc2cc(F)ccc2O1 (stereo partly shown)" unit_of_measurement=% quantitative_result=100
